# test.protocol: in vivo
# protocol.conditions: female, beagle, dog, in vivo, po, 0.5 mg/m2

{"columns": ["structure.smiles.string", "Cmax, ng/mL"],
 "data": [
  ["CC(=O)Nc1cccc(-n2c(=O)n(C3CC3)c(=O)c3c(Nc4ccc(I)cc4F)n(C)c(=O)c(C)c32)c1", 12.3]
]}

----------
# test.protocol: in vivo
# protocol.conditions: male, Sprague Dawley, rat, in vivo, po, 1 mg/m2

{"columns": ["compound", "unit.name", "AUC"],
 "data": [
  ["CC(=O)Nc1cccc(-n2c(=O)n(C3CC3)c(=O)c3c(Nc4ccc(I)cc4F)n(C)c(=O)c(C)c32)c1 [Compound]", "ng·h/mL", 218]
]}

----------
# test.protocol: in vivo
# protocol.conditions: male, beagle, dog, in vivo, po, 0.5 mg/m2

{"columns": ["structure.smiles.string", "AUC (ng·h/mL)"],
 "data": [
  ["CC(=O)Nc1cccc(-n2c(=O)n(C3CC3)c(=O)c3c(Nc4ccc(I)cc4F)n(C)c(=O)c(C)c32)c1", 159]
]}

----------
# test.protocol: FTIH study: single dose (Day 1) pharmacokinetics of Compound tablets
# Type: in vivo
# protocol.conditions: plasma; human, single oral dose Day 1, fasting, 0.25 mg, individual (N 1); read-out: C24

{"columns": ["molecule", "concentration at 24 h (ng/mL)"],
 "data": [
  ["CC(=O)Nc1cccc(-n2c(=O)n(C3CC3)c(=O)c3c(Nc4ccc(I)cc4F)n(C)c(=O)c(C)c32)c1 [Compound]", 0]
]}

----------
# test.protocol: in vivo
# protocol.conditions: female, beagle, dog, in vivo, po, 0.3 mg/m2
property.name: Cmax (ng/mL)

{"columns": ["structure.smiles.string", "unit.name", "quantitative.result"],
 "data": [
  ["CC(=O)Nc1cccc(-n2c(=O)n(C3CC3)c(=O)c3c(Nc4ccc(I)cc4F)n(C)c(=O)c(C)c32)c1", "ng/mL", 7.19]
]}

----------
# test.protocol: FTIH study: single dose (Day 1) pharmacokinetics of Compound tablets
# Assay type: in vivo
# protocol.conditions: plasma; human, single oral dose Day 1, fasting, 3.0 mg, mean (CV %), N 12
property.name: Cmax (ng/mL)

{"columns": ["structure.smiles.string", "quantitative.result"],
 "data": [
  ["CC(=O)Nc1cccc(-n2c(=O)n(C3CC3)c(=O)c3c(Nc4ccc(I)cc4F)n(C)c(=O)c(C)c32)c1", 11.5]
]}

----------
# test.protocol: in vivo
# protocol.conditions: female, Sprague Dawley, rat, in vivo, po, 0.25 mg/m2
property.name: AUC (ng·h/mL)

{"columns": ["structure.smiles.string", "unit.name", "quantitative.result"],
 "data": [
  ["CC(=O)Nc1cccc(-n2c(=O)n(C3CC3)c(=O)c3c(Nc4ccc(I)cc4F)n(C)c(=O)c(C)c32)c1", "ng·h/mL", 126]
]}

----------
# test.protocol: in vivo
# protocol.conditions: male, beagle, dog, in vivo, po, 0.3 mg/m2

{"columns": ["structure.smiles.string", "Cmax"],
 "data": [
  ["CC(=O)Nc1cccc(-n2c(=O)n(C3CC3)c(=O)c3c(Nc4ccc(I)cc4F)n(C)c(=O)c(C)c32)c1", "5.15 ng/mL"]
]}

----------
# test.protocol: in vivo
# protocol.conditions: female, Sprague Dawley, rat, in vivo, po, 1 mg/m2

{"columns": ["compound", "unit.name", "AUC"],
 "data": [
  ["CC(=O)Nc1cccc(-n2c(=O)n(C3CC3)c(=O)c3c(Nc4ccc(I)cc4F)n(C)c(=O)c(C)c32)c1 [Compound]", "ng·h/mL", 460]
]}
